Source of measurements: patent US10709707B2

# PROTOCOL DESCRIPTION: 13-week repeat-dose oral toxicity in rats
# Format: in vivo, rat
# TEST CONDITIONS: female, rat, in vivo, po, 30 mg/kg/day
OBSERVATION TYPE: AUC

Documented AUC of C(=C\[C@H]1CCNC1)/c1cncnc1 : 10200 ng·h/mL

###

# ASSAY SYSTEM: a6/a3b2b3 (Homo sapiens, UniProt P17787+P32297+Q15825)
# Sequence (Q15825+P32297 fused with the stated changes): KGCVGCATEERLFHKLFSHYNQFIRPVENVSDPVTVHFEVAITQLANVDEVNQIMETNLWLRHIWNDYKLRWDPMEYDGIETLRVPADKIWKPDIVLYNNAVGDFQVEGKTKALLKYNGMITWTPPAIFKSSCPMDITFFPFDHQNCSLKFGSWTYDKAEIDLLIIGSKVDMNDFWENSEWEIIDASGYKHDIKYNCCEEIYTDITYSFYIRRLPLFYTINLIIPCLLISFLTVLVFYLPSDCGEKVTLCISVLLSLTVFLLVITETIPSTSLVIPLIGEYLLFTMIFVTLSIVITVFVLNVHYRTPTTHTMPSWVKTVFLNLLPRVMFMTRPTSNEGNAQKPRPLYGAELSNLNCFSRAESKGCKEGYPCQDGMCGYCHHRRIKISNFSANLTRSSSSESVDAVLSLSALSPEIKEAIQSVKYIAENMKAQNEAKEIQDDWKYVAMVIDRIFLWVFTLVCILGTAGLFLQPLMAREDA
# Sequence (P17787 26-502): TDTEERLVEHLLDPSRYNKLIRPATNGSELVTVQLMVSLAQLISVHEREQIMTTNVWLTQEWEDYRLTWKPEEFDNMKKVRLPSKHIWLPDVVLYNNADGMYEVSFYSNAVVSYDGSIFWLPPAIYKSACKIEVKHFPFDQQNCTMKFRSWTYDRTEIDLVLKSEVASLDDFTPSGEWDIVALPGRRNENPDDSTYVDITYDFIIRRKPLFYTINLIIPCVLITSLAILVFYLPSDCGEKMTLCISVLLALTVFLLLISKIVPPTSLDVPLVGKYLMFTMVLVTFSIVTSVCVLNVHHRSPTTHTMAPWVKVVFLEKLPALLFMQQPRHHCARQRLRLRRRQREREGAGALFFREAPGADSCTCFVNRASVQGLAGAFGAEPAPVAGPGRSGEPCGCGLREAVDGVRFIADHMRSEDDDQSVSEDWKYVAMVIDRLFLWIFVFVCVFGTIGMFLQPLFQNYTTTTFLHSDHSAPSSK
# Sequence (Q05901 25-458 partner limits assumed): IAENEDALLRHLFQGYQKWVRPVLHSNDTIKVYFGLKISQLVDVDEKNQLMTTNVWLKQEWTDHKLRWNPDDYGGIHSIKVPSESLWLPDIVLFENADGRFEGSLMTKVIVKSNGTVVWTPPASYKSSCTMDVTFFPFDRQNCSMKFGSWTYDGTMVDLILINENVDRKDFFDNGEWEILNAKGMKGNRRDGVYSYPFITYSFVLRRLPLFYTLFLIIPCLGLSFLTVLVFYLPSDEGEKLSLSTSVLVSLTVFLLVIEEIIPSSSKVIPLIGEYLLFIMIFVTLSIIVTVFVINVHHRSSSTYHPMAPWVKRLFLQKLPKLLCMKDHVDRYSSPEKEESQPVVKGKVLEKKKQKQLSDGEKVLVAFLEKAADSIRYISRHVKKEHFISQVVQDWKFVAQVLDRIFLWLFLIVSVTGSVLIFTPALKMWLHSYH
# PROTOCOL DESCRIPTION: Receptor function a6/a3b2b3, Ca++ flux
# TEST CONDITIONS: Human a6/a3b2b3
OBSERVATION TYPE: pIC50
Please report pIC50 as the negative decimal logarithm of the molar concentration, giving only the number.

Documented pIC50 of C(=C\[C@H]1CCNC1)/c1cncnc1 : 5.55
